assay: Dissociation constant, pKa of compound; assay type: physicochemical
quantity_kind: pKa

Ask | Which value of pKa has been reported for [2H]C([2H])([2H])NC(=O)c1cnc(NC(=O)C2CC2)cc1Nc1cccc(-c2nnn(C)n2)c1OC in the records?
Reply | 4.8

====

assay: Solubility of compound at pH 7.4 by reversed-phase UPLC analysis; format: physicochemical; conditions: buffer
quantity_kind: solubility

Ask | Which value of solubility has been reported for [2H]C([2H])([2H])NC(=O)c1cnc(NC(=O)C2CC2)cc1Nc1cccc(-c2nnn(C)n2)c1OC in the records?
Reply | < 1 µg/mL

====

assay: Oral bioavailability in monkey; format: ADME, organism-based, Macaca mulatta; conditions: rhesus monkey, in vivo
quantity_kind: bioavailability (%)
Output spec: scalar in %, unitless text.

Ask | Which value of bioavailability has been reported for [2H]C([2H])([2H])NC(=O)c1cnc(NC(=O)C2CC2)cc1Nc1cccc(-c2nnn(C)n2)c1OC in the records?
Reply | 100
